STUDY_SYSTEM: PERK (Homo sapiens)
Sequence (Q9NZJ5 30-1116): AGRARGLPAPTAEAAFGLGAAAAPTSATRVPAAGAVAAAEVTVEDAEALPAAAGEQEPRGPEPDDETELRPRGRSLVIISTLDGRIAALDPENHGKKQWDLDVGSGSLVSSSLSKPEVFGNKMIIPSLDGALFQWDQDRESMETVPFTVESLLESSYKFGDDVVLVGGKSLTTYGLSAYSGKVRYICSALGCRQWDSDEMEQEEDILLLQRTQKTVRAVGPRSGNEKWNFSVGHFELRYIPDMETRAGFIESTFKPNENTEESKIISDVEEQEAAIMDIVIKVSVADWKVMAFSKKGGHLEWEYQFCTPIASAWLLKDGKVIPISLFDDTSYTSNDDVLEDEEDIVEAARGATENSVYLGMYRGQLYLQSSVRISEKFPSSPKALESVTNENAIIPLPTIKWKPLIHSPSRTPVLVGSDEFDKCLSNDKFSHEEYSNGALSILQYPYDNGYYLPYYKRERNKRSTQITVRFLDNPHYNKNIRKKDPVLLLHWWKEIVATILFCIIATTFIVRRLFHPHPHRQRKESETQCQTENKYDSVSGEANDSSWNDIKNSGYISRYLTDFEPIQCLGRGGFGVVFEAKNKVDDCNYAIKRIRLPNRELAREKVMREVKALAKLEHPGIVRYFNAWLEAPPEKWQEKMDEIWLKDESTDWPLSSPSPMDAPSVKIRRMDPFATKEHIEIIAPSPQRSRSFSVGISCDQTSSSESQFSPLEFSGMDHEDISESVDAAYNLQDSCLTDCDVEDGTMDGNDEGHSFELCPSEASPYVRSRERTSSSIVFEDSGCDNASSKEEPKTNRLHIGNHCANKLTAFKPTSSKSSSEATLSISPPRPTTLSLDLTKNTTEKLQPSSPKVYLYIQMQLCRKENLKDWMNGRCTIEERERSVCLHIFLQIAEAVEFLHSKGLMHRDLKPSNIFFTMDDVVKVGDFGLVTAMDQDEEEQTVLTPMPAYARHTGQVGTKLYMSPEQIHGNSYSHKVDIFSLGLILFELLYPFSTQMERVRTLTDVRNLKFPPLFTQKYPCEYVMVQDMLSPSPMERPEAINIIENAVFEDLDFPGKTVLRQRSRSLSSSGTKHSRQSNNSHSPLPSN
PROTOCOL_SUMMARY: In-vitro PERK enzyme inhibition assay (LanthaScreen, KIN_PERK)
Type: biochemical
Set-up: GST (N); purchased Invitrogen PV5106
STUDY_CONDITIONS: recombinant GST-PERK, GFP-eIF2 alpha substrate, 5 μM ATP, 60 minutes; read-out: KIN_PERK pIC50 (converted)
For each entry below, report its IC50 value.

State recorded IC50 with PERK (Homo sapiens), entry COc1cc2ncnc(Nc3ccc4c(c3)CCN4C(=O)Cc3csc4ccccc34)c2cc1OC , no comment.
5.01 nM

Report measured IC50 on PERK (Homo sapiens); entry: COc1cc2ncnc(Nc3ccc4c(c3)CCN4C(=O)Cc3cc4ccccc4[nH]3)c2cc1OC
398 nM

Name the value of IC50 reported for COc1cc2ncnc(Nc3ccc4c(c3)CCN4C(=O)CN3C(=O)c4ccccc4C3=O)c2cc1OC when tested on PERK (Homo sapiens).
3160 nM

Consider the molecule COc1ccc2[nH]c(C)c(CC(=O)N3CCc4cc(Nc5ncnc6cc(OC)c(OC)cc56)ccc43)c2c1 tested on PERK (Homo sapiens); state its IC50.
1.58 nM

Please tell me the measured IC50 for COc1cc2ncnc(Nc3ccc4c(c3)CCN4C(=O)Cc3c(-c4cnn(C)c4)cnn3C)c2cc1OC ; system: PERK (Homo sapiens).
631 nM

Enter measured IC50, system PERK (Homo sapiens), for the molecule shown: COc1cc2ncnc(Nc3ccc4c(c3)CCN4C(=O)Cc3c(-c4ccsc4)cnn3C)c2cc1OC
251 nM

Give IC50 for COc1ccc2ncnc(Nc3ccc4c(c3)CCN4C(=O)Cc3cc(F)cc(C(F)(F)F)c3)c2c1 tested on PERK (Homo sapiens).
~21.4 nM

Recall the reported IC50 of COc1cc2ncnc(Nc3ccc4c(c3)CCN4C(=O)Cc3cn(C(C)C)c4ccccc34)c2cc1OC on PERK (Homo sapiens) and write it down.
1580 nM

Give IC50 for this entry on PERK (Homo sapiens): COc1cc2ncnc(Nc3ccc4c(c3)CCN4C(=O)Cn3ccc4ccc(F)cc43)c2cc1OC
3.98 nM

# return IC50 of COc1cc2ncnc(Nc3ccc4c(c3)CCN4C(=O)Cc3n[nH]c4ccccc34)c2cc1OC (system: PERK (Homo sapiens))
63.1 nM

Lab note: PERK (Homo sapiens) assay, enter IC50 for COc1cc2ncnc(Nc3ccc4c(c3)CCN4C(=O)Cn3cnc4ccccc43)c2cc1OC here
63.1 nM

// fetch IC50; item: COc1cc2ncnc(Nc3ccc4c(c3)CCN4C(=O)Cc3c[nH]c4ccccc34)c2cc1OC ; system: PERK (Homo sapiens)
12.6 nM

Look up and report measured IC50 (PERK (Homo sapiens)) for the following molecule: COc1cc2ncnc(Nc3ccc4c(c3)CCN4C(=O)Cn3ccnc3)c2cc1OC
> 10000 nM

Provide PERK (Homo sapiens) IC50 reading for Cc1[nH]c2ccccc2c1CC(=O)N1CCc2cc(Nc3ncnc4cc5c(cc34)OCO5)ccc21 .
3.98 nM

Answer with IC50 of COc1cc2ncnc(Nc3ccc4c(c3)CCN4C(=O)Cc3c(-c4ccoc4)cnn3C)c2cc1OC measured for PERK (Homo sapiens).
50.1 nM

State the measured IC50 (PERK (Homo sapiens)) of COc1cc2ncnc(Nc3ccc4c(c3)C(F)(F)CN4C(=O)Cc3cc(F)ccc3F)c2cc1OC
31.6 nM

Enter measured IC50, system PERK (Homo sapiens), for the molecule shown: COc1cc2ncnc(Nc3ccc4c(c3)CCN4C(=O)Cc3cccs3)c2cc1OC
31.6 nM

GET IC50 where system = PERK (Homo sapiens) and item = COc1cc2ncnc(Nc3ccc4c(c3)CCN4C(=O)CN3Cc4ccccc4C3=O)c2cc1OC
1580 nM

Please report IC50 with PERK (Homo sapiens) for item COc1cc2ncnc(Nc3ccc4c(c3)CCN4C(=O)Cc3c(C)[nH]c4ccc(F)cc34)c2cc1OC .
0.631 nM

Report value: IC50, system: PERK (Homo sapiens), molecule: COc1cc2ncnc(Nc3ccc4c(c3)CCN4C(=O)Cc3ccccc3)c2cc1OC
25.1 nM

Give IC50 only, for COc1cc2ncnc(Nc3ccc4c(c3)CCN4C(=O)Cc3c(C)n(C)c4ccccc34)c2cc1OC , using PERK (Homo sapiens) data.
1.26 nM

Please report IC50 with PERK (Homo sapiens) for item COc1cc2ncnc(Nc3ccc4c(c3)CCN4C(=O)Cc3cc(F)cc(C(F)(F)F)c3)c2cc1OC .
2 nM
